Read-out: Cyclin D1 (CCND1), CCND1 (gene 595)
Test: LTEA_HepaRG_CCND1: Life Technologies and Expression Analysis (LTEA) Assay for Cyclin D1 (CCND1) using HepaRG (AID 2283451)
Settings: mRNA level, 48 h; actives raise or lower the signal
Active and inactive are the calls of the source. The calls were made as follows: active = hit-call score of the fitted dose curve at least 0.9, where 1 is the maximum; inactive = score below 0.9.
Outcomes you can answer with include only these: 1 (active), 0 (inactive)

Please review the following examples before continuing.
| smiles-text | answer-label |
| --- | --- |
| C[C@]12C=CC3=C4CCC(=O)C=C4CC[C@H]3[C@@H]1CC[C@@H]2O | 0 |
| O=P(OCCCl)(OCCCl)OCCCl | 0 |
| CCNS(=O)(=O)C(F)(F)C(F)(F)C(F)(F)C(F)(F)C(F)(F)C(F)(F)C(F)(F)C(F)(F)F | 0 |
| CCN(CC)N=O | 0 |
| Nc1ccc(Oc2ccc(N)cc2)cc1 | 0 |
| CNC(=O)Oc1cccc2c1OC(C)(C)C2 | 0 |
| Cc1ccc(N)cc1 | 0 |
| O=[N+]([O-])C(Br)(CO)CO | 0 |
| CC(C)(OOC(C)(C)c1ccccc1)c1ccccc1 | 0 |
| Oc1ccc2ccc3cccc4ccc1c2c34 | 0 |

Q. Outcome logged for CCCCCOC(=O)c1ccccc1C(=O)OCCCCC in this assay:
A. 0

----------
Assay: APR_HepG2_CellCycleArrest_24hr: Apredica 24-hour HepG2 Assay for Cell Cycle Arrest (AID 2282905);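 also: cell cycle arrest scored as ratio of 2N to 4N nuclear DNA content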
Details: imaging, actives raise or lower the signal
Protocol: APR_HepG2_24hr is a cell-based, multiplexed-readout assay that uses HepG2, a human liver cell line, with measurements taken at 24 hours after chemical dosing in a 384-well plate.APR_HepG2_CellCycleArrest_24hr is one of 10 assay component(s) measured or calculated from the APR_HepG2_24hr assay. […] This assay endpoint, APR_HepG2_CellCycleArrest_24hr, was analyzed with bidirectional fitting relative to DMSO as the negative control and baseline of activity. […]
Activity calls are given as the source filed them. How the source made its calls: active means hit-call score of the fitted dose curve at least 0.9, where 1 is the maximum; inactive means score below 0.9.
Result category, one only: Y (active), N (inactive)

Below are worked cases with known answers.
| compound | answer-label |
| --- | --- |
| CCCSC(=O)N(CCC)CCC | N |
| Cc1ccc(N)cc1 | N |
| CCOC(=O)[C@]1(c2ccccc2)Oc2ccccc2[C@@H]1N | N |

Q. Recorded test call requested for CC(C)N(Cc1ccccc1)C(=O)C(C)(C)C
A. N

Q. Dear all, I need the recorded test outcome for Nc1ccc(Cl)cc1N , thank you.
A. Y

Q. Give the logged outcome of this assay for the following compound: C=CCc1ccc2c(c1)OCO2
A. N

----------
Read-out: CD38, CD38 (gene 952)
Experiment: BSK_SAg_CD38: BioMAP Diversity Plus: SAg Assay for CD38 Biomarker Activity (AID 2283087)
Settings: primary human HUVEC with PBMC; actives raise or lower the signal
Protocol: BSK_SAg is a cell-based, multiplexed-readout assay that uses umbilical vein endothelium and peripheral blood mononuclear cells, a human vascular primary cell co-culture, with measurements taken at 24 hours after chemical dosing in a 96-well plate.BSK_SAg_CD38 is one of 10 assay component(s) measured or calculated from the BSK_SAg assay. […] This assay endpoint, BSK_SAg_CD38, was analyzed with bidirectional fitting relative to DMSO as the negative control and baseline of activity. […]
The source made the active and inactive calls. How the source made its calls: active means hit-call score of the fitted dose curve at least 0.9, where 1 is the maximum; inactive means score below 0.9.
Lab note: assign the record to one of active, inactive

Would you please look over these solved cases?
| compound | answer-label |
| --- | --- |
| CC(C)(C)OOC(=O)c1ccccc1 | inactive |
| Nc1cc(Cl)cc(C(=O)O)c1Cl | inactive |
| CCN(CC)N=O | inactive |
| Clc1ccc(C(c2ccc(Cl)cc2)C(Cl)Cl)cc1 | active |
| [Cl-].[Cl-].[Hg+2] | active |

Next, consider the following compound.
Q. # outcome recorded in this test, key = CCCCCCCCCCCCCN1CC(C)OC(C)C1 (stereo unspecified)
A. inactive
